Assay: Plasma clearance in mouse
Assay type: ADME, organism-based
Settings: read-out: Clp
READOUT_LABEL: clearance
Give the figure together with its unit, number first.

Using the record for CC(C)C[C@@H](NC(=N)N)C(=O)NCC(=O)N1CCC(c2cc(-c3ccc(OCc4ccc(C(=O)O)o4)c(Cl)c3Cl)nn2C)CC1 , report its clearance. 13.6 mL/min/kg

====

Target: Interleukin-2 (Homo sapiens, UniProt P60568)
Sequence (P60568 whole entry): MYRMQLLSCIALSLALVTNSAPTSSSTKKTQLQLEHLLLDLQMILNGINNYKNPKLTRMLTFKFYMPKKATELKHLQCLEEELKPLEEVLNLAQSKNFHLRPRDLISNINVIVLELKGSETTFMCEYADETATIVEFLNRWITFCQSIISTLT
Experiment: Concentration required to inhibit mouse interleukin-2 alpha receptor was determined by SPA assay
READOUT_LABEL: pIC50
Friendly reminder that pIC50 comes from taking -log10 of the concentration in mol/L.

Example entries begin here.
smiles_representation=COC(=O)c1ccc(COc2ccc(-c3cc(C4CCN(C(=O)CNC(=O)[C@@H](CC(C)C)N=C(N)N)CC4)n(C)n3)c(Cl)c2Cl)cc1 experimental_result=4.40
smiles_representation=Cc1cccc(-c2cc(C3CCN(C(=O)CNC(=O)[C@H](N=C(N)N)C4CCCCC4)CC3)[nH]n2)c1C experimental_result=3.89
smiles_representation=NC(N)=N[C@@H](C(=O)NCC(=O)N1CCC(c2cc(-c3cccc(Cl)c3)n[nH]2)CC1)C1CCCCC1 experimental_result=3.89

Here is another compound to look at.
Using the record for CC(C)C[C@@H](N=C(N)N)C(=O)NCC(=O)N1CCC(c2cc(-c3ccc(OCc4ccccc4)c(Cl)c3Cl)nn2C)CC1 , report its pIC50. 4.46
